Each recorded value in this set is attributed to ChEMBL document CHEMBL5608162.

assay: Volume of distribution at steady state in iv dosed rat; format: ADME, organism-based; settings: in vivo, read-out: Vdss
Metric Name: Vd (L/kg)

{"columns": ["Compound", "Metric Name", "Uom", "Recorded Result"],
 "data": [
  ["CC1CC1C(=O)Nc1ccc(C[C@H](NC(=O)c2ccc(C(=O)O)s2)C(=O)N(C)Cc2cc(=O)[nH]c3ccc(Cl)cc23)cc1 (stereo partly specified)", "Vd", "L/kg", 40]
]}

---

experiment: Cmax in iv dosed rat; assay type: ADME, organism-based; conditions: in vivo
Metric Name: Cmax

{"columns": ["Compound", "Recorded Result"],
 "data": [
  ["CC1CC1C(=O)Nc1ccc(C[C@H](NC(=O)c2ccc(C(=O)O)s2)C(=O)N(C)Cc2cc(=O)[nH]c3ccc(Cl)cc23)cc1 (stereo partly specified)", "2.12 µg/mL"]
]}

---

assay: AUC in iv dosed rat; format: ADME, organism-based; conditions: in vivo

{"columns": ["Molecule", "AUC (ng·h/mL)"],
 "data": [
  ["CC1CC1C(=O)Nc1ccc(C[C@H](NC(=O)c2ccc(C(=O)O)s2)C(=O)N(C)Cc2cc(=O)[nH]c3ccc(Cl)cc23)cc1 (stereo partly specified)", 313]
]}

---

test: Solubility of compound at pH 8; format: physicochemical; conditions: buffer, read-out: solubility

{"columns": ["Smiles String", "solubility [µg/mL]"],
 "data": [
  ["COC(=O)Nc1ccc(C(=O)N[C@@H](Cc2ccccc2)C(=O)N(C)Cc2cc(=O)[nH]c3ccc(Cl)cc23)cc1", 17.3]
]}
